Provenance of the data: ChEMBL document CHEMBL4610036

# experimental-target: C-X-C chemokine receptor type 6 (Homo sapiens)
# Sequence (O00574 whole entry): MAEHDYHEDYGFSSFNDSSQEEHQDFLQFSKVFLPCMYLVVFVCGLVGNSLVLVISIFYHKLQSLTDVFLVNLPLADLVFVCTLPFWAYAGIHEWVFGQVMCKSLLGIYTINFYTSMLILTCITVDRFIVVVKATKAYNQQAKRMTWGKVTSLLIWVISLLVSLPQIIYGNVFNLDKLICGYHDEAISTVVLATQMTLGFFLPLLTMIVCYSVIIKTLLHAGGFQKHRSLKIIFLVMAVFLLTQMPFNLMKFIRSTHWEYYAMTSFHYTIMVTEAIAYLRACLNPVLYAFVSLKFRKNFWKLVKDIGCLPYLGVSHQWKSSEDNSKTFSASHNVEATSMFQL
# assay: Antagonist activity at Prolink-tagged human CXCR6 receptor assessed as inhibition of CXCL16-induced beta-arrestin recruitment by DiscoveRx cell based assay
pIC50: −log10 of the molar value.
property: pIC50

smiles_text=COc1cc(C(=O)N[C@@H]2C[C@H]3CCC[C@@H](C2)N3CC(=O)Nc2cc(C)ccc2C)cc(OC)c1OC experimental_target="C-X-C chemokine receptor type 6 (Homo sapiens)" property=pIC50 measured=6.21
smiles_text=COc1cc(C(=O)N[C@@H]2C[C@H]3CCC[C@@H](C2)N3CC(=O)Nc2ccccc2C#N)cc(OC)c1OC experimental_target="C-X-C chemokine receptor type 6 (Homo sapiens)" property=pIC50 measured=6.03
smiles_text=COc1cc(C(=O)N[C@@H]2C[C@H]3CCC[C@@H](C2)N3CC(=O)Nc2cccc(F)c2)cc(OC)c1OC experimental_target="C-X-C chemokine receptor type 6 (Homo sapiens)" property=pIC50 measured=6.08
smiles_text=COc1cc(C(=O)N[C@@H]2C[C@H]3CCC[C@@H](C2)N3CC(=O)Nc2ccc(C)cc2)cc(OC)c1OC experimental_target="C-X-C chemokine receptor type 6 (Homo sapiens)" property=pIC50 measured=5.02
smiles_text=COc1cc(C(=O)N[C@@H]2C[C@H]3CCC[C@@H](C2)N3CC(=O)Nc2c(Cl)cccc2Cl)cc(OC)c1OC experimental_target="C-X-C chemokine receptor type 6 (Homo sapiens)" property=pIC50 measured=4.42
smiles_text=COc1cc(C(=O)N[C@@H]2C[C@H]3CCC[C@@H](C2)N3Cc2nc3c(Cl)cccc3s2)cc(OC)c1OC experimental_target="C-X-C chemokine receptor type 6 (Homo sapiens)" property=pIC50 measured=6.89
smiles_text=COc1cc(C(=O)N[C@@H]2C[C@H]3CCC[C@@H](C2)N3CC(=O)Nc2ccc(F)cc2)cc(OC)c1OC experimental_target="C-X-C chemokine receptor type 6 (Homo sapiens)" property=pIC50 measured=5.24
